Reported pIC50 against Prolyl endopeptidase FAP (Homo sapiens, UniProt Q12884), gathered from multiple publications, appears below.
pIC50: −log10 of the molar value.
REPORTED_METRIC: pIC50

Illustrative cases are given below, each with its answer.
{"columns": ["MOLECULE", "pIC50"],
 "data": [
  ["Cc1ccc2nccc(C(=O)NCC(=O)N3[C@H](C#N)C[C@@H]4C[C@@H]43)c2c1", 9.25],
  ["C[C@@H]1CN(c2ccc3nccc(C(=O)NCC(=O)N4CSC[C@H]4C#N)c3c2)CCCO1", 10.07],
  ["CC1(C)CN(c2ccc3nccc(C(=O)NCC(=O)N4CSC[C@H]4C#N)c3c2)C(=O)O1", 10.39],
  ["Cc1cccc(C2CN(c3ccc4nccc(C(=O)NCC(=O)N5CSC[C@H]5C#N)c4c3)C2)c1", 10.00],
  ["Cc1ccc(CNC(=O)c2csc3c(=O)n(Cc4ccccc4C#N)c(N4CCC[C@@H](N)C4)nc23)cc1", 5.03],
  ["CC1(C)CN(c2ccc3nccc(C(=O)NCC(=O)N4CSC[C@H]4C#N)c3c2)CCC1(F)F", 10.00],
  ["N#C[C@@H]1CSCN1C(=O)CNC(=O)c1ccnc2ccc(N3CCC[C@H](F)C3)cc12 (mixture of isomers)", 10.19],
  ["N#C[C@@H]1CSCN1C(=O)CNC(=O)c1ccnc2ccc(N3CCCCO3)cc12", 10.00]
]}

(I) Cc1ncccc1-c1ccc2nccc(C(=O)NCC(=O)N3CSC[C@H]3C#N)c2c1
(II) N#C[C@@H]1CSCN1C(=O)CNC(=O)c1ccnc2ccc(-n3ccc4cc(F)ccc43)cc12
Prompt: Of I and II , which one carries the higher reported pIC50? Respond using the label that marks the chosen record.
Response: II
